Data origin: patent US10501421B1

Below is a list of entries, each paired with its recorded EC50 value.
ASSAY TARGET: UniProt Q07889
PROCEDURE TEXT: SOS-mediated nucleotide exchange on Ras (BODIPY-GDP fluorescence)
CONDITIONS: SOS-mediated exchange of BODIPY-GDP for GTP on Ras
Where a name gives a salt, the structure may show the parent alone.

Could you share which EC50 value was measured for Cc1nn(C)c(C)c1-c1cccc2c1nc(N1CCNCC1)n2Cc1ccc(F)c(Cl)c1 [Example 85, trifluoroacetate] ? 1 to 5 µM

Could you share which EC50 value was measured for COc1ccc(-n2nccc2-c2cc(Cl)cc3c2nc(N2CCNCC2)n3Cc2ccc(F)c(Cl)c2)cc1 [Example 168, trifluoroacetate] ? 1 to 5 µM

Could you share which EC50 value was measured for Cc1cc2c(nc(N3CCNCC3)n2Cc2ccc(F)c(C)c2)c(CNC2CCCC2)n1 ? 5 to 30 µM

Could you share which EC50 value was measured for NCCNc1nc2ccccc2n1Cc1ccc(Cl)cc1 [Example 12, trifluoroacetate] ? 5 to 30 µM

Could you share which EC50 value was measured for Cc1cc2c(nc(N3CCNCC3)n2Cc2ccc(F)c(C)c2)c(CNCC(C)C)n1 ? 5 to 30 µM

Could you share which EC50 value was measured for CC(C)n1nccc1-c1cc(Cl)cc2c1nc(N1CCNCC1)n2Cc1ccc(F)c(Cl)c1 [Example 176, trifluoroacetate] ? 1 to 5 µM

Could you share which EC50 value was measured for CCc1cc2c(cc1C)nc(N1CCNCC1)n2Cc1ccc(F)c(CC)c1 [Example 67, trifluoroacetate] ? 5 to 30 µM

----------
ASSAY TARGET: Ras GEF SOS (Son of Sevenless) (Homo sapiens)
PROCEDURE TEXT: SOS-mediated nucleotide exchange on Ras (BODIPY-GDP fluorescence)
CONDITIONS: SOS-mediated exchange of BODIPY-GDP for GTP on Ras
Counter-ions that a name gives are not always drawn.
PROPERTY: EC50

Nc1ccc(-c2cccc3c2nc(N2CCNCC2)n3Cc2ccc(C(F)(F)F)cc2)cc1 [Example 92]    1 to 5 µM
CC(C)c1ccccc1-c1cccc2c1nc(N1CCNCC1)n2Cc1cc(F)cc(F)c1 [Example 97]    1 to 5 µM
Fc1ccc(Cn2c(NC3CCNC3)nc3ccc(Cl)cc32)cc1Cl (stereo not shown) [Example 77, trifluoroacetate]    < 1 µM
COc1ccccc1C#Cc1ccccc1-c1cc(Cl)cc2c1nc(N1CCNCC1)n2Cc1cc(C)c(F)c(C)c1 [Example 186, trifluoroacetate]    5 to 30 µM
Cc1cc2nc(NCCN3CCOCC3)n(Cc3cc(F)cc(F)c3)c2cc1C [Example 31, trifluoroacetate]    5 to 30 µM

Could you share which EC50 value was measured for COc1ccccc1-c1cccc2c1nc(N1CCNCC1)n2Cc1ccc(F)c(Cl)c1 [Example 81, trifluoroacetate] ? 1 to 5 µM

Could you share which EC50 value was measured for Cc1cc2nc(N[C@H]3C[C@@H](N)C3)n(Cc3ccc(F)c(Cl)c3)c2cc1C [Example 292] ? 1 to 5 µM

----------
ASSAY TARGET: Ras GEF SOS (Son of Sevenless) (Homo sapiens)
PROCEDURE TEXT: SOS-mediated nucleotide exchange on Ras (BODIPY-GDP fluorescence)
CONDITIONS: SOS-mediated exchange of BODIPY-GDP for GTP on Ras
pEC50: −log10 of the molar value. Counter-ions that a name gives are not always drawn.
Below is a list of entries, each paired with its recorded pEC50 value.

Cc1cc(C2NCCc3c2[nH]c2ccccc32)c2nc(N3CCNCC3)n(Cc3cc(C)c(F)c(C)c3)c2c1 (stereo not drawn) [Example 139, trifluoroacetate]    5.30 to 6.00
Cc1cc(N(C)CCN(C)C)c2nc(N3CCNCC3)n(Cc3cc(C)c(F)c(C)c3)c2c1 [Example 191, trifluoroacetate]    5.30 to 6.00
Cc1cnc2nc(N3CCC(N)C3)n(Cc3ccc(F)c(C)c3)c2c1 (stereo not drawn)    5.30 to 6.00
CCc1cc(Cn2c(NCCN)nc3c(-c4c(C)nn(C)c4C)c(C)c(C)cc32)ccc1Cl [Example 115, trifluoroacetate]    4.52 to 5.30

Could you share which pEC50 value was measured for Cc1cc2nc(N3CCNCC3)n(Cc3ccc(F)c(C4CC4)c3)c2cc1C [Example 51, trifluoroacetate] ? 4.52 to 5.30

Could you share which pEC50 value was measured for Cc1cc2c(nc(N3CCNCC3)n2Cc2ccc(Cl)cc2)c(-c2ccccc2Cl)c1C [Example 106, trifluoroacetate] ? 5.30 to 6.00

----------
ASSAY TARGET: Son of Sevenless (SOS) (Homo sapiens)
Sequence (Q07889 564-1049 limits assumed): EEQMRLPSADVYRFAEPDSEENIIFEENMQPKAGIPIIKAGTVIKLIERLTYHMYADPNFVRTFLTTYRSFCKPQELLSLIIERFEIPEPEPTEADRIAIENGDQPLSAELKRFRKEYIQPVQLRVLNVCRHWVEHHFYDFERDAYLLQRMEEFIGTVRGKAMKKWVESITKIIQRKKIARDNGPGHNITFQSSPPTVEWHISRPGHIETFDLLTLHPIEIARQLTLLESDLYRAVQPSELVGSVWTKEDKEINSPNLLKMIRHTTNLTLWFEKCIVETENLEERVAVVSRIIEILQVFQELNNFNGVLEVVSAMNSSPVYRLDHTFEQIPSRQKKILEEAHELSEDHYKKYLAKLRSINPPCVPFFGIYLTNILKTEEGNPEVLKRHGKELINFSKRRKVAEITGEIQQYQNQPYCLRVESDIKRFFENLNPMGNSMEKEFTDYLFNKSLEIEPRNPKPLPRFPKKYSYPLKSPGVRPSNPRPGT
Where a name gives a salt, the structure may show the parent alone.
PROPERTY: Ki

Cc1cc(N2CCN(C)CC2)c2nc(N3CCNCC3)n(Cc3cc(C)c(F)c(C)c3)c2c1    < 500 nM
Cc1ccccc1-c1c(C)c(C)cc2c1nc(NCCN)n2Cc1cccc(C#N)c1 [Example 116, trifluoroacetate]    1000 to 5000 nM
Cc1cc2nc(NCCCN)n(Cc3cc(C)c(F)c(C)c3)c2cc1C [Example 43, trifluoroacetate]    > 5000 nM
Fc1ccc(Cn2c(NCC3CNC3)nc3ccc(Cl)cc32)cc1Cl [Example 75, trifluoroacetate]    1000 to 5000 nM
Cc1cc(Cn2c(NCCN)nc3c(N4CCNCC4)cc(Cl)cc32)cc(C)c1F    < 500 nM

Could you share which Ki value was measured for COc1ccc(-n2nccc2-c2cc(Cl)cc3c2nc(N2CCNCC2)n3Cc2ccc(F)c(Cl)c2)cc1 [Example 168, trifluoroacetate] ? 500 to 1000 nM

----------
ASSAY TARGET: Ras GEF SOS (Son of Sevenless) (Homo sapiens)
PROCEDURE TEXT: SOS-mediated nucleotide exchange on Ras (BODIPY-GDP fluorescence)
CONDITIONS: SOS-mediated exchange of BODIPY-GDP for GTP on Ras
Experimental: Compounds of the present invention were tested for their ability to modify the rate at which Ras exchanges a labeled nucleotide guanosine diphosphate (GDP) analog for guanosine triphosphate (GTP). […] Changes in fluoresence indicating exchange of the labeled GDP for GTP are monitored over time. Raw fluorescence data was fit to a single exponential decay function and derived rates were plotted as mean values. […]
Where a name gives a salt, the structure may show the parent alone.
Below is a list of entries, each paired with its recorded EC50 value.

Recorded results for 5 compounds are shown here.
Cc1cc(CN2CCOCC2)c2nc(N3CCNCC3)n(Cc3cc(C)c(F)c(C)c3)c2c1 [Example 127, trifluoroacetate]    1 to 5 µM
Cc1cc(NCCCN(C)C)c2nc(N3CCNCC3)n(Cc3cc(C)c(F)c(C)c3)c2c1 [Example 197, trifluoroacetate]    1 to 5 µM
C=Cc1nc(C)cc2c1nc(N1CCNCC1)n2Cc1ccc(F)c(C)c1    30 to 100 µM
Nc1ccccc1-c1cccc2c1nc(N1CCNCC1)n2Cc1ccc(F)c(Cl)c1 [Example 83, trifluoroacetate]    1 to 5 µM
Cc1cc2c(nc(N3CCNCC3)n2Cc2ccc(F)c(C)c2)c(-c2ccncc2)n1    5 to 30 µM

Field: EC50 (Ras GEF SOS (Son of Sevenless) (Homo sapiens)). Entry: Cc1cc2nc(NC3CCNC3)n(Cc3ccc(F)c(Cl)c3)c2cc1C (stereo not drawn) 1 to 5 µM

Field: EC50 (Ras GEF SOS (Son of Sevenless) (Homo sapiens)). Entry: Cc1cc(-c2ccccc2Cl)c2nc(N3CCNCC3)n(Cc3ccc(F)c(Cl)c3)c2c1 [Example 118, trifluoroacetate] 1 to 5 µM

Field: EC50 (Ras GEF SOS (Son of Sevenless) (Homo sapiens)). Entry: Cc1cc(-c2cccc3c2nc(N2CCNCC2)n3Cc2ccc(C(F)(F)F)cc2)nn1C 1 to 5 µM

Field: EC50 (Ras GEF SOS (Son of Sevenless) (Homo sapiens)). Entry: Cc1cc2nc(NCCN)n(Cc3ccc(F)c(Cl)c3)c2cc1C [Example 17, trifluoroacetate] 1 to 5 µM
